- assay: P-glycoprotein substrates identified in KB-3-1 adenocarcinoma cell line, qHTS therapeutic library screen (AID 1346986); also: nearly all actives have a fitted effect of over 60% in size
- assay conditions: KB-3-1 parental cells viability, CellTiter-Glo, 72 h; series mostly up to 44.5 µM
- Method: The ATP-binding cassette transporters P-glycoprotein (P-gp) is known to limit brain penetration of many chemotherapy drugs. […] All cell lines were plated into 1536-well plates at 500 cells/well in 5 uL media. […] CellTiter-Glo reagent (Promega) was dispensed into the wells, incubated for 5 min and luminescence was read on a ViewLux instrument (Perkin-Elmer). […]
Results filed as inconclusive are left out. Active and inactive are the calls of the source. Calls follow the shape of the dose curve; as a rule, active = well fitted inhibition curve with a large enough effect; inconclusive = small, poorly fitted or top-dose-only effect; inactive = no such curve, though single readings can be large or run the other way.
Classes used: active, inactive

[
  {
    "chemical smiles": "Cn1c(=O)c(-c2c(Cl)cccc2Cl)cc2cnc(Nc3cccc(C(=O)O)c3)nc21",
    "category": "inactive"
  },
  {
    "chemical smiles": "CC1(COc2ccc3c(c2)ncn3-c2ccc3cccc(N4CCC(N)CC4)c3n2)COC1",
    "category": "active"
  },
  {
    "chemical smiles": "Cc1ccc(NC(=O)c2ccc(CN3CCN(C)CC3)cc2)cc1Nc1nc(-c2cccnc2)cs1",
    "category": "inactive"
  },
  {
    "chemical smiles": "COc1cc(Nc2nc3ccccc3nc2NS(=O)(=O)c2ccc(NC(=O)c3ccc(C)c(OC)c3)cc2)cc(OC)c1",
    "category": "inactive"
  },
  {
    "chemical smiles": "CCC(=O)OCC(=O)[C@@]1(OC(=O)CC)[C@@H](C)C[C@@H]2[C@H]3CCC4=CC(=O)C=C[C@]4(C)[C@@]3(F)[C@@H](O)C[C@@]21C",
    "category": "inactive"
  },
  {
    "chemical smiles": "C[C@@]1(c2cc(-c3cncnc3)c(F)cc2F)CCSC(N)=N1",
    "category": "inactive"
  },
  {
    "chemical smiles": "O=C(NCCCCN1CCOCC1)c1cc2ccccc2o1",
    "category": "inactive"
  }
]

Origin of the recorded values: PubChem BioAssay (NCATS)
